For each entry below, report its MIC value.
System: Proteus morganii 1518
Give a bare numeral; the unit µg/mL is implied.

INPUT: What MIC value was documented for this compound, CO[C@H]1/C=C/O[C@@]2(C)Oc3c(C)c(O)c4c(O)c(c5[nH]c(N6CCc7ccccc76)nc5c4c3C2=O)NC(=O)/C(C)=C\C=C\[C@H](C)[C@H](O)[C@@H](C)[C@@H](O)[C@@H](C)[C@H](OC(C)=O)[C@@H]1C [Verbindung 20, 4-Indolinyl-imidazolo[4,5-c]rifamycin SV] ?
OUTPUT: 4

INPUT: Do the same for C#CCN1CCN(c2nc3c([nH]2)c2c(O)c4c(O)c(C)c5c(c43)C(=O)[C@@](C)(O/C=C/[C@H](OC)[C@@H](C)[C@@H](OC(C)=O)[C@H](C)[C@H](O)[C@H](C)[C@@H](O)[C@@H](C)/C=C/C=C(/C)C(=O)N2)O5)CC1 please
OUTPUT: 8

INPUT: Do the same for C=CCCN1CCN(c2nc3c([nH]2)c2c(O)c4c(O)c(C)c5c(c43)C(=O)[C@@](C)(O/C=C/[C@H](OC)[C@@H](C)[C@@H](OC(C)=O)[C@H](C)[C@H](O)[C@H](C)[C@@H](O)[C@@H](C)/C=C/C=C(/C)C(=O)N2)O5)CC1 please
OUTPUT: 8

INPUT: Do the same for CC=C(CC)CN1CCN(c2nc3c([nH]2)c2c(O)c4c(O)c(C)c5c(c43)C(=O)[C@@](C)(O/C=C/[C@H](OC)[C@@H](C)[C@@H](OC(C)=O)[C@H](C)[C@H](O)[C@H](C)[C@@H](O)[C@@H](C)/C=C/C=C(/C)C(=O)N2)O5)CC1 please
OUTPUT: 4

###

For each entry below, report its MIC value.
Test system: Escherichia coli 2018
Give a bare numeral; the unit µg/mL is implied.

INPUT: What MIC value was documented for this compound, CO[C@H]1/C=C/O[C@@]2(C)Oc3c(C)c(O)c4c(O)c(c5nc(N6CCN(C7CCCCC7)CC6)[nH]c5c4c3C2=O)NC(=O)/C(C)=C\C=C\[C@H](C)[C@H](O)[C@@H](C)[C@@H](O)[C@@H](C)[C@H](OC(C)=O)[C@@H]1C [Verbindung 51] ?
OUTPUT: 32

INPUT: Do the same for CO[C@H]1/C=C/O[C@@]2(C)Oc3c(C)c(O)c4c(O)c(c5[nH]c(N6CCCCC6)nc5c4c3C2=O)NC(=O)/C(C)=C\C=C\[C@H](C)[C@H](O)[C@@H](C)[C@@H](O)[C@@H](C)[C@H](OC(C)=O)[C@@H]1C [Verbindung 21] please
OUTPUT: 4

INPUT: Do the same for CO[C@H]1/C=C/O[C@@]2(C)Oc3c(C)c(O)c4c(O)c(c5nc(N6CCN(CC7CCCC7)CC6)[nH]c5c4c3C2=O)NC(=O)/C(C)=C\C=C\[C@H](C)[C@H](O)[C@@H](C)[C@@H](O)[C@@H](C)[C@H](OC(C)=O)[C@@H]1C [Verbindung 55] please
OUTPUT: 1

INPUT: Do the same for C=C(C)CN1CCN(c2nc3c([nH]2)c2c(O)c4c(O)c(C)c5c(c43)C(=O)[C@@](C)(O/C=C/[C@H](OC)[C@@H](C)[C@@H](OC(C)=O)[C@H](C)[C@H](O)[C@H](C)[C@@H](O)[C@@H](C)/C=C/C=C(/C)C(=O)N2)O5)CC1 [Verbindung 46] please
OUTPUT: 8
